target: Cat L (UniProt P07711); experiment: Cathepsin enzyme inhibition assay (fluorogenic peptide substrate Z-Val-Val-Arg-AMC), Cathepsin L; format: biochemical, human and mouse; settings: enzyme 1 nM, substrate 20 μM, pH 6.5; read-out: CatL IC50
Field: IC50. Provide a value for each of the compounds that follow.
Write it as a number; the unit µM goes unstated.

Recorded IC50 for `CC1(C(=O)N2C[C@H](S(=O)(=O)c3ccc(Cl)cc3Cl)C[C@H]2C(=O)NC2(C#N)CC2)CC1` on Cat L (UniProt P07711) was 18.6

Recorded IC50 for `N#CC1(NC(=O)[C@@H]2C[C@@H](S(=O)(=O)c3ccc(-n4cccn4)cc3Cl)CN2C(=O)C2(C(F)(F)F)CC2)CC1` on Cat L (UniProt P07711) was 13.6

Recorded IC50 for `N#CC1(NC(=O)[C@@H]2C[C@@H](S(=O)(=O)c3ccc(OCC(F)(F)F)cc3Cl)CN2C(=O)C2(c3ccc4c(c3)OCO4)CC2)CC1` on Cat L (UniProt P07711) was 0.1

Recorded IC50 for `Cc1cc(N2C[C@H](S(=O)(=O)c3ccc(OCC(F)(F)F)cc3Cl)C[C@H]2C(=O)NC2(C#N)CC2)n(C2CCOCC2)n1` on Cat L (UniProt P07711) was 2.71

Recorded IC50 for CC(Oc1ccc(S(=O)(=O)[C@@H]2C[C@@H](C(=O)NC3(C#N)CC3)N(C=O)C2)c(Cl)c1)C(F)(F)F (stereo partly shown) on Cat L (UniProt P07711) was 27.9

Recorded IC50 for `N#CC1(NC(=O)[C@@H]2C[C@@H](S(=O)(=O)c3ccccc3C(F)(F)F)CN2Cc2ccncc2)CC1` on Cat L (UniProt P07711) was 47.7

Recorded IC50 for `N#CC1(NC(=O)[C@@H]2C[C@@H](S(=O)(=O)c3ccccc3Cl)CN2C(=O)C2(c3ccc(Cl)c(Cl)c3)CC2)CC1` on Cat L (UniProt P07711) was 0.463

Recorded IC50 for `Cc1cc(N2C[C@H](S(=O)(=O)c3ccc(N4CCN(C)CC4)cc3C(F)(F)F)C[C@H]2C(=O)NC2(C#N)CC2)n(C2CCC2)n1` on Cat L (UniProt P07711) was 8.06

Recorded IC50 for `N#CC1(NC(=O)[C@@H]2C[C@@H](S(=O)(=O)c3ccc(F)cc3Cl)CN2C(=O)C2(c3ccc(Cl)nc3)CC2)CC1` on Cat L (UniProt P07711) was 0.267

Recorded IC50 for `CC(C)(C)N1CCN(c2ccc(S(=O)(=O)[C@@H]3C[C@@H](C(=O)NC4(C#N)CC4)N(C(=O)C4(C(F)(F)F)CC4)C3)c(Cl)c2)CC1` on Cat L (UniProt P07711) was 1.18

Recorded IC50 for `Cc1cc(N2C[C@H](S(=O)(=O)c3ccc(F)cc3C(F)(F)F)C[C@H]2C(=O)NC2(C#N)CC2)n(-c2ccc(C(F)(F)F)cc2)n1` on Cat L (UniProt P07711) was 7.81

---

molecular target: Cat L (UniProt P07711); test: Cathepsin enzyme inhibition assay (fluorogenic peptide substrate Z-Val-Val-Arg-AMC), Cathepsin L; format: biochemical, human and mouse; settings: enzyme 1 nM, substrate 20 μM, pH 6.5; read-out: CatL IC50
Metric Name: IC50 (µM)
Write it as a number; the unit µM goes unstated.

IC50 for CC1(C(=O)N2C[C@H](S(=O)(=O)c3ccc(-c4ccc(F)cc4F)cc3C(F)(F)F)C[C@H]2C(=O)NC2(C#N)CC2)CC1 [Example 259] is 79.5

IC50 for Cc1cc(N2C[C@H](S(=O)(=O)c3ccccc3C(F)(F)F)C[C@H]2C(=O)NC2(C#N)CC2)n(C(C)C)n1 [Example 268] is 47.3

IC50 for Cc1cc(N2C[C@H](S(=O)(=O)c3ccccc3C(F)(F)F)C[C@H]2C(=O)NC2(C#N)CC2)n(CCc2ccccc2)n1 [Example 337] is 13

IC50 for CN1CCN(c2ccc(S(=O)(=O)[C@@H]3C[C@@H](C(=O)NC4(C#N)CC4)N(C(=O)C4(C)CC4)C3)c(C(F)(F)F)c2)CC1 [Example 272] is 17.1

---

target: Cathepsin S (UniProt P25774); assay: Cathepsin enzyme inhibition assay (fluorogenic peptide substrate Z-Val-Val-Arg-AMC), Cathepsin S; type: biochemical, human and mouse; conditions: enzyme 1 nM, substrate 20 μM, pH 6.5; read-out: CatS IC50
pIC50: −log10 of the molar value. Counter-ions that a name gives are not always drawn.
The threshold is inclusive: pIC50 of exactly 9 counts as yes; values below receive no.

Query block: In plain terms: is recorded pIC50 at least 9 for `Cc1cc(-c2ccc(S(=O)(=O)[C@@H]3C[C@@H](C(=O)NC4(C#N)CC4)N(C(=O)C4(C)CC4)C3)c(C(F)(F)F)c2)ccn1` ?
Result block: yes

Query block: In plain terms: is recorded pIC50 at least 9 for N#CC1(NC(=O)[C@@H]2C[C@@H](S(=O)(=O)c3c(Cl)cccc3Cl)CN2)CC1 [Example 16, Hydrochloride] ?
Result block: no

Query block: In plain terms: is recorded pIC50 at least 9 for `Cc1ccc(C2(C(=O)N3C[C@H](S(=O)(=O)c4ccc(OCC(F)(F)F)cc4Cl)C[C@H]3C(=O)NC3(C#N)CC3)CC2)cc1` ?
Result block: yes

Query block: In plain terms: is recorded pIC50 at least 9 for `N#CC1(NC(=O)[C@@H]2C[C@@H](S(=O)(=O)c3ccc(OCC(F)(F)F)cc3Cl)CN2C(=O)C2(c3ccc(C(N)=O)cc3)CC2)CC1` ?
Result block: yes

Query block: In plain terms: is recorded pIC50 at least 9 for `N#CC1(NC(=O)[C@@H]2C[C@@H](S(=O)(=O)c3ccc(N4CCN5CCC[C@H]5C4)cc3Cl)CN2C(=O)C2(c3ccc(Cl)nc3)CC2)CC1` ?
Result block: yes

Query block: In plain terms: is recorded pIC50 at least 9 for `N#CC1(NC(=O)[C@@H]2C[C@@H](S(=O)(=O)c3ccc(N4CCN(CC(F)(F)F)CC4)cc3Cl)CN2C(=O)C2(C(F)(F)F)CC2)CC1` ?
Result block: no

Query block: In plain terms: is recorded pIC50 at least 9 for `N#CC1(NC(=O)[C@@H]2C[C@@H](S(=O)(=O)c3ccc(N4CCCCC4)cc3Cl)CN2C(=O)C2(C(F)(F)F)CC2)CC1` ?
Result block: yes

Query block: In plain terms: is recorded pIC50 at least 9 for `CN(C)c1ccc(S(=O)(=O)[C@@H]2C[C@@H](C(=O)NC3(C#N)CC3)N(C(=O)C3(C(F)(F)F)CC3)C2)c(Cl)c1` ?
Result block: yes

Query block: In plain terms: is recorded pIC50 at least 9 for `Cc1cc(N2C[C@H](S(=O)(=O)c3ccc(-c4ccnn4C)cc3C(F)(F)F)C[C@H]2C(=O)NC2(C#N)CC2)n(C2CCC2)n1` ?
Result block: yes

Query block: In plain terms: is recorded pIC50 at least 9 for `CC(C)(C)OC(=O)N1C[C@H](S(=O)(=O)c2ccc(OC3COC3)cc2Cl)C[C@H]1C(=O)NC1(C#N)CC1` ?
Result block: no

Query block: In plain terms: is recorded pIC50 at least 9 for `N#CCNC(=O)[C@@H]1C[C@@H](S(=O)(=O)c2ccccc2)CN1Cc1ccccc1` ?
Result block: no

Query block: In plain terms: is recorded pIC50 at least 9 for `N#CC1(NC(=O)[C@@H]2C[C@@H](S(=O)(=O)c3ccccc3Cl)CN2C(=O)C2(c3ccc(Br)cc3)CC2)CC1` ?
Result block: yes

Query block: In plain terms: is recorded pIC50 at least 9 for `N#CC1(NC(=O)[C@@H]2C[C@@H](S(=O)(=O)c3ccccc3Cl)CN2C(=O)C2(c3ccc(I)cc3)CC2)CC1` ?
Result block: yes

Query block: In plain terms: is recorded pIC50 at least 9 for `Cc1cc(N2C[C@H](S(=O)(=O)c3ccc(-n4cccn4)cc3C(F)(F)F)C[C@H]2C(=O)NC2(C#N)CC2)n(C2CCC2)n1` ?
Result block: yes

Query block: In plain terms: is recorded pIC50 at least 9 for `N#CC1(NC(=O)[C@@H]2C[C@@H](S(=O)(=O)c3ccc(-n4cccn4)cc3Cl)CN2C(=O)C2(c3ccc(Cl)nc3)CC2)CC1` ?
Result block: yes

Query block: In plain terms: is recorded pIC50 at least 9 for `CN1CCN(c2ccc(S(=O)(=O)[C@@H]3C[C@@H](C(=O)NC4(C#N)CC4)N(C(=O)C4(c5ccc(Cl)nc5)CC4)C3)c(Cl)c2)CC1` ?
Result block: yes

Query block: In plain terms: is recorded pIC50 at least 9 for N#CC1(NC(=O)[C@@H]2C[C@@H](S(=O)(=O)c3ccccc3Cl)CN2)CCC1 [Example 45, Hydrochloride] ?
Result block: no

Query block: In plain terms: is recorded pIC50 at least 9 for `N#CC1(NC(=O)[C@@H]2C[C@@H](S(=O)(=O)c3ccc(F)cc3C(F)(F)F)CN2C(=O)C2(C(F)(F)F)CC2)CC1` ?
Result block: yes

Query block: In plain terms: is recorded pIC50 at least 9 for `CN1CCN(c2ccc(S(=O)(=O)[C@@H]3C[C@@H](C(=O)NC4(C#N)CC4)N(C(=O)C4(c5ccc(Cl)cc5)CC4)C3)c(Cl)c2)CC1` ?
Result block: yes

Query block: In plain terms: is recorded pIC50 at least 9 for `Cc1cc(N2C[C@H](S(=O)(=O)c3ccccc3C(F)(F)F)C[C@H]2C(=O)NC2(C#N)CC2)n(-c2ccc(F)cc2)n1` ?
Result block: no
